For each entry below, report its %Inh value.
Tested on: CAMK2D
Conditions: concentration: 1 μM, replicates: in singlicate; n = 1;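 further: KINOMEscan kinase panel screen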
Express the result in % but write the number alone.

Task item: Requested field: %Inh. Item: Fc1cccc(COc2ccc(Nc3ncnc4nn5ccccc5c34)cc2Cl)c1
Reply: 0

Task item: Requested field: %Inh. Item: Cl.c1ccc(Cn2ccc3cc(Nc4ncnc5ccccc45)ccc32)cc1
Reply: 24

Task item: Requested field: %Inh. Item: O=C(c1ccc(-c2cc(-c3c[nH]nc3-c3ccccn3)ccn2)cc1)N1CCCC1
Reply: 3

Task item: Requested field: %Inh. Item: Fc1ccc(-c2ncn(CCCNCc3ccccc3)c2-c2ccncc2)cc1
Reply: 0

Task item: Requested field: %Inh. Item: N#Cc1ccc(Oc2ccc(Nc3ncnc4cc[nH]c34)cc2Cl)cc1
Reply: 13

====

Tested on: NEK11
Settings: concentration: 1 μM, replicates: in singlicate; n = 1
For each entry below, report its %Inh value.
Express the result in % but write the number alone.

Task item: Requested field: %Inh. Item: Nc1nc(-c2cccnc2)c(-c2ccnc3ccccc23)s1 [GW684083]
Reply: 27

Task item: Requested field: %Inh. Item: Oc1ccc2ncnc(Nc3ccc(OCc4ccccc4)cc3)c2c1 [GI262866]
Reply: 0

Task item: Requested field: %Inh. Item: FC(F)(F)c1ccc(-c2nn3ncccc3c2-c2ccnc(Nc3cccc(C(F)(F)F)c3)n2)cc1 [GW828205]
Reply: 0

Task item: Requested field: %Inh. Item: Cc1ccc(O)cc1Nc1cc(C(F)(F)F)nc2ccc(-c3ccncc3)cc12 [GW630823]
Reply: 0

Task item: Requested field: %Inh. Item: CCn1c(-c2ccncc2)nc2cnccc21 [SB-735216]
Reply: 51

Task item: Requested field: %Inh. Item: Cl.O=S(=O)(c1cccc(F)c1)c1ccc(Nc2ncnc3cc(Br)sc23)cc1Cl [GSK306886]
Reply: 1

Task item: Requested field: %Inh. Item: C[C@H]1CC[C@@H](C(=O)Nc2ccccc2)CN1c1cc(-c2ccc3c(N)n[nH]c3c2)nc(N)n1 [GSK2283293]
Reply: 0

Task item: Requested field: %Inh. Item: OCCOCCn1ccc2ncnc(Nc3ccc(Oc4cccc(Cl)c4)c(Cl)c3)c21
Reply: 0

Task item: Requested field: %Inh. Item: Cn1ccc2ncnc(Nc3ccc(Oc4cccc(Cl)c4)c(Cl)c3)c21
Reply: 0

Task item: Requested field: %Inh. Item: COC(=O)c1c(-c2ccccc2)c2cc(Cl)ccc2c(=O)n1Cc1ccc(S(C)(=O)=O)cc1
Reply: 0

Task item: Requested field: %Inh. Item: CS(=O)(=O)CCNCc1ccc(-c2ccc3ncnc(Nc4ccc(OCc5ccccc5)c(Cl)c4)c3c2)o1.Cl [GW574783]
Reply: 26

Task item: Requested field: %Inh. Item: COc1ccc(Nc2nccc(N3CCC(NC(=O)Nc4ccc5c(c4)OCO5)C3)n2)cc1 (stereo not drawn) [GSK1379745]
Reply: 0

Task item: Requested field: %Inh. Item: C[C@@H]1CCN(C(=O)CO)C[C@@H]1N(C)c1ncnc2[nH]ccc12
Reply: 0

Task item: Requested field: %Inh. Item: Clc1cccc(-c2nc(Nc3ccncc3)c3ccccc3n2)c1 [GW873004]
Reply: 0

Task item: Requested field: %Inh. Item: CCc1nc(-c2cccc(N(C)S(=O)(=O)c3ccccc3)c2)c(-c2ccnc(Nc3ccc(N4CCN(C(C)=O)CC4)nc3)n2)s1 [GSK1645895]
Reply: 0

Task item: Requested field: %Inh. Item: COc1cc2ncnc(Nc3ccc(OCc4ccccc4Br)c(Cl)c3)c2cc1OC.Cl [GI261590]
Reply: 0

Task item: Requested field: %Inh. Item: Cl.c1ccc(Cn2ncc3cc(Nc4ncnc5ccccc45)ccc32)cc1 [GW273749]
Reply: 0

Task item: Requested field: %Inh. Item: Cl.Cn1ccc(-c2cccc(Nc3ccnc4cc(-c5nccs5)ccc34)c2)n1 [GW525701]
Reply: 15

====

Test system: DMPK2
Construct: gene CDC42BPG
Details: concentration: 1 μM, replicates: in singlicate; n = 1
For each entry below, report its %Inh value.
Express the result in % but write the number alone.

Task item: Requested field: %Inh. Item: CS(=O)(=O)CCNCc1ccc(-c2ccc3ncnc(Nc4ccc(OCc5ccccc5)c(Cl)c4)c3c2)o1.Cl [GW574783]
Reply: 2

Task item: Requested field: %Inh. Item: Cc1ccc(NC(=O)c2cccc(C#N)c2)cc1-c1ccc(C(=O)Nc2ccncc2)cc1 [GSK1398463]
Reply: 6

Task item: Requested field: %Inh. Item: Fc1cccc(COc2ccc(Nc3ncnc4sc(-c5ccc[nH]5)cc34)cc2Cl)c1 [GW707818]
Reply: 0

Task item: Requested field: %Inh. Item: CN1c2ccc(-c3ccc(C(=O)NCCO)cc3)cc2-c2[nH]ncc2S1(=O)=O
Reply: 7

====

For each entry below, report its %Inh value.
System: DCAMKL2
Construct: gene DCLK2
Conditions: concentration: 1 μM, replicates: in singlicate; n = 1
Express the result in % but write the number alone.

Task item: Notebook entry, DCAMKL2 assay: %Inh of Cl.Fc1ccccc1COc1ccc(Nc2ncnc3ccc(-c4nnc(C(F)(F)F)o4)cc23)cc1Cl [GW424170] = ?
Reply: 1

Task item: Notebook entry, DCAMKL2 assay: %Inh of COc1ccc(-c2oc3ncnc(N)c3c2-c2ccc(OC)cc2)cc1 [SB-589132] = ?
Reply: 7

Task item: Notebook entry, DCAMKL2 assay: %Inh of CCn1c(-c2ccncc2)nc2cnccc21 [SB-735216] = ?
Reply: 0

Task item: Notebook entry, DCAMKL2 assay: %Inh of CN1CCC(n2cnc(-c3ccc(F)cc3)c2-c2ccnc(NC3CCNCC3)n2)CC1 [SB-229482] = ?
Reply: 16

Task item: Notebook entry, DCAMKL2 assay: %Inh of FC(F)(F)c1cc(Nc2nccc(-c3c(-c4ccc(Cl)cc4)nn4ncccc34)n2)ccc1Cl [GW829351] = ?
Reply: 0

====

Tested on: BMPR1A
Conditions: concentration: 1 μM, replicates: in singlicate; n = 1
MEASURED PARAMETER: %Inh
Phrase the answer as number then unit, nothing more needed.

Task item: Requested field: %Inh. Item: O=C(c1ccc(-c2cc(-c3c[nH]nc3-c3ccccn3)ccn2)cc1)N1CCCC1
Reply: 0%

Task item: Requested field: %Inh. Item: COc1ccc(NC(=O)Nc2ccc(C)c(-c3ccc(C(=O)Nc4ccncc4)cc3)c2)cc1
Reply: 0%

Task item: Requested field: %Inh. Item: FC(F)(F)c1ccc(-c2nn3ncccc3c2-c2ccnc(Nc3cccc(C(F)(F)F)c3)n2)cc1
Reply: 0%

Task item: Requested field: %Inh. Item: O=C(Nc1ccccc1F)NC1CCN(c2ccnc(Nc3ccc(F)cc3)n2)C1 (stereo not drawn)
Reply: 0%

Task item: Requested field: %Inh. Item: CS(=O)(=O)CCNCc1nc(-c2ccc3ncnc(Nc4ccc(OCc5cccc(F)c5)c(Cl)c4)c3c2)cs1.Cl
Reply: 0%

Task item: Requested field: %Inh. Item: CC(=O)Nc1n[nH]c2ncc(-c3ccccc3)cc12
Reply: 30%

Task item: Requested field: %Inh. Item: CNc1nccc(-c2c(-c3ccc(F)cc3)ncn2CCCN2CCOCC2)n1
Reply: 13%

Task item: Requested field: %Inh. Item: CCC(CC)(CC)n1cnc2c(N)ncnc21
Reply: 7%

Task item: Requested field: %Inh. Item: FC(F)(F)c1ccc(-c2cc(-c3c[nH]nc3-c3ccccn3)ccn2)cc1
Reply: 0%

Task item: Requested field: %Inh. Item: c1ccc(-c2ccc3c(-c4ccnc(Nc5ccc6c(c5)OCCO6)n4)cnn3n2)cc1
Reply: 0%

Task item: Requested field: %Inh. Item: COc1ccc(-c2oc3ncnc(N)c3c2-c2ccc(OC)cc2)cc1
Reply: 0%

Task item: Requested field: %Inh. Item: Clc1cc(Nc2ncnc3cc[nH]c23)ccc1OCc1ccccn1
Reply: 25%

Task item: Requested field: %Inh. Item: Cl.Fc1ccccc1COc1ccc(Nc2ncnc3ccc(-c4nnc(C(F)(F)F)o4)cc23)cc1Cl
Reply: 0%

Task item: Requested field: %Inh. Item: C[C@H]1CC[C@@H](C(=O)Nc2ccccc2)CN1c1cc(-c2ccc3c(N)n[nH]c3c2)nc(N)n1
Reply: 0%

Task item: Requested field: %Inh. Item: Cn1ccc2ncnc(Oc3ccc(NC(=O)Nc4cccnc4)c(Cl)c3)c21
Reply: 0%

Task item: Requested field: %Inh. Item: COc1cc2c(Nc3cccc(NC(=O)c4ccccc4)c3)ncnc2cc1OCCCN1CCOCC1
Reply: 9%

Task item: Requested field: %Inh. Item: CSc1ccc(NC2=C(c3ccccc3Cl)C(=O)NC2=O)cc1
Reply: 0%

Task item: Requested field: %Inh. Item: COc1ccc(Nc2nccc(N3CCC(NC(=O)Nc4ccc5c(c4)OCO5)C3)n2)cc1 (stereo not drawn)
Reply: 13%
